Assay: Toxicity toward host BESM cells in the T. cruzi assay
Type: cell-based, bovine
Details: bovine; highest assay concentration 20 µM
PARAMETER_MEASURED: GI50 at 72 h

CCCCC(NC(=O)C(CCC)NC(c1ccc(-c2ccc(S(C)(=O)=O)cc2)cc1)C(F)(F)F)C(=O)c1nnc(-c2ccco2)o1 (stereo not shown) :: > 20 µM

====

Catalogue of IC50 values
Target: falcipain-2 (Plasmodium falciparum, UniProt Q8I6U4)
Sequence (Q8I6U4 244-484): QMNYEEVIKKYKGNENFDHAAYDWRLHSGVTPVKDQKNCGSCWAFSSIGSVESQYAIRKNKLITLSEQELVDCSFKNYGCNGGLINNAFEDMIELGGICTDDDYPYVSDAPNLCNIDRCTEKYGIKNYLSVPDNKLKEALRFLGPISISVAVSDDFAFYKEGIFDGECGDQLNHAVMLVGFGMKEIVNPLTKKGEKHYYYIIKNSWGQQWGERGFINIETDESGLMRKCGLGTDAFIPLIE
PARAMETER_MEASURED: IC50 (nM)

CC(C)CC(NC(=O)N1CCOCC1)C(=O)NC(C=CS(=O)(=O)c1ccccc1)CCc1ccccc1 (stereo not shown) [Compound 18b] :: 3.6
CCCCC(NC(=O)C(Cc1ccccc1)NC(=O)N1CCOCC1)C(=O)c1nc2ccccc2o1 (stereo not shown) [Compound 19b] :: 4.4
N#CC1(NC(=O)C(CC2CCCCC2)NC(=O)c2cccc(-c3cccc(S(N)(=O)=O)c3)c2)CCS(=O)(=O)CC1 (stereo not shown) [Compound 20] :: 7.5
CCCCC(NC(=O)C(CC(C)C)NC(C)=O)C(=O)c1nc2ccccc2o1 (stereo not shown) [Compound 19c] :: 66
